Test system: Candida albicans
Assay: In vivo antifungal activity against murine candidosis model after peroral administration with 0.5 mg/kg at various time intervals. (percent protection for 100% mortality with untreated group)
Assay type: functional
Settings: route oral
Protection values, listed per item
Reply with just the number (in %).

Reference set (5 entries):
Cc1nc(-c2ccc(C(F)(F)F)cc2)sc1C(=O)N[C@H](C)[C@](O)(Cn1cncn1)c1ccc(F)cc1F : 100
Cc1nc(-c2ccc(OC(F)(F)F)cc2)sc1C(=O)N[C@H](C)[C@](O)(Cn1cncn1)c1ccc(F)cc1F : 100
Cc1nc(C)c(C(=O)N[C@H](C)[C@](O)(Cn2cncn2)c2ccc(F)cc2F)s1 : 0
C[C@@H](n1ncn(-c2ccc(OCC(F)(F)C(F)F)cc2)c1=O)[C@](O)(Cn1cncn1)c1ccc(F)cc1F : 100
CCC(C)n1ncn(-c2ccc(N3CCN(c4ccc(OC[C@@H]5CO[C@@](Cn6cncn6)(c6ccc(Cl)cc6Cl)O5)cc4)CC3)cc2)c1=O (stereo partly drawn) : 0

Report Protection for `Cc1nc(-c2ccc(Cl)cc2)n(C)c1C(=O)N[C@H](C)[C@](O)(Cn1cncn1)c1ccc(F)cc1F`
100

Please report Protection for the following molecule: `Cc1nc(-c2ccc(C#N)cc2)sc1C(=O)N[C@H](C)[C@](O)(Cn1ccnc1)c1ccc(F)cc1F`
70

Supply reported Protection belonging to this molecule: `C[C@@H](c1ncncc1F)[C@](O)(Cn1cncn1)c1ccc(F)cc1F`
0

Origin of the recorded values: ChEMBL document CHEMBL1131231
